Documented MIC across a set of molecules
- Tested on: Candida albicans
- Assay Summary: Antifungal activity against Candida albicans MY1055 assessed as growth inhibition after 24 hrs by liquid microdilution assay in presence of 10% mouse plasma
- Assay type: functional
Quantity: MIC (µg/mL)

• C/C=C/[C@@H]1[C@H]2C[C@@H](COC(=O)C3CC3)CC[C@@H]2C(C)=C[C@H]1C(=O)c1c(O)c(-c2ccc(O)cc2)c[nH]c1=O = 0.25
• C/C=C/[C@@H]1[C@H]2C[C@@H](C)CC[C@@H]2C(C)=C[C@H]1C(=O)c1c(O)c(-c2ccc(OC(=O)/C=C/c3cnc[nH]3)cc2)c[nH]c1=O = 1
• C/C=C/[C@@H]1[C@H]2C[C@@H](COC(C)=O)CC[C@@H]2C(C)=C[C@H]1C(=O)c1c(O)c(-c2ccc(OC(C)=O)cc2)c[nH]c1=O = 1

---

- Assay Summary: Inhibition of rat liver NADH:cytochrome bc1 reductase
Documented IC50 across a set of compounds
Quantity: IC50 (µg/mL)

• C/C=C/[C@@H]1[C@H]2C[C@@H](C)CC[C@@H]2C(C)=C[C@H]1C(=O)c1c(O)c(-c2ccc(OCC)cc2)c[nH]c1=O = 1
• C/C=C/[C@@H]1[C@H]2C[C@@H](C)CC[C@@H]2C(C)=C[C@H]1C(=O)c1c(O)c(-c2ccc(OC(=O)Nc3ccc(Br)cc3)cc2)c[nH]c1=O = 1
• C/C=C/[C@@H]1[C@H]2C[C@@H](C)CC[C@@H]2C(C)=C[C@H]1C(=O)c1c(O)c(-c2ccc(OC(=O)Cc3ccccc3)cc2)c[nH]c1=O = 1

---

- System: Candida albicans
- Assay Summary: Ratio of MIC for Candida albicans MY1055 in presence of 10% mouse plasma to MIC for Candida albicans MY1055 in absence of mouse plasma
- Format: functional
Quantity: Ratio

* C/C=C/[C@@H]1[C@H]2C[C@@H](C)CC[C@@H]2C(C)=C[C@H]1C(=O)c1c(O)c(-c2ccc(OC(=O)/C=C/c3cnc[nH]3)cc2)c[nH]c1=O | 16
* C/C=C/[C@@H]1[C@H]2C[C@@H](COC(C)=O)CC[C@@H]2C(C)=C[C@H]1C(=O)c1c(O)c(-c2ccc(OC(C)=O)cc2)c[nH]c1=O | 8
* C/C=C/[C@@H]1[C@H]2C[C@@H](COC(=O)C3CC3)CC[C@@H]2C(C)=C[C@H]1C(=O)c1c(O)c(-c2ccc(O)cc2)c[nH]c1=O | 8

---

Documented log10 of IC50 across a set of compounds
- Assay Summary: Inhibition of rat liver NADH:cytochrome bc1 reductase
Quantity: log10 of IC50 (log10 of the value in µg/mL)

- C/C=C/[C@@H]1[C@H]2C[C@@H](CO)CC[C@@H]2C(C)=C[C@H]1C(=O)c1c(O)c(-c2ccc(OC(=O)C3CC3)cc2)c[nH]c1=O: -2.10
- CC1O[C@H]1[C@@H]1[C@H]2C[C@@H](C)CC[C@@H]2[C@](C)(O)[C@H]2Oc3ncc(-c4ccc(O)cc4)c(O)c3C(=O)[C@@H]12 (some centres undefined): 0.00
- C/C=C/[C@@H]1[C@H]2C[C@@H](CO)CC[C@@H]2C(C)=C[C@H]1C(=O)c1c(O)c(-c2ccc(O)cc2)c[nH]c1=O: -0.40
- C/C=C/[C@@H]1[C@H]2C[C@@H](C)CC[C@@H]2C(C)=C[C@H]1C(=O)c1c(O)c(-c2ccc(O)cc2)c[nH]c1=O [ILICICOLIN H]: 0.30
- C/C=C/[C@@H]1[C@H]2C[C@@H](C)CC[C@@H]2[C@](C)(Br)[C@H]2Oc3ncc(-c4ccc(O)c(Br)c4)c(O)c3C(=O)[C@@H]12: 0.00
- C/C=C/[C@@H]1[C@H]2C[C@@H](COC(=O)C3CC3)CC[C@@H]2C(C)=C[C@H]1C(=O)c1c(O)c(-c2ccc(O)cc2)c[nH]c1=O: -1.40
- C/C=C/[C@@H]1[C@H]2C[C@@H](C)CC[C@@H]2C(C)=C[C@H]1C(=O)c1c(O)c(-c2ccc(OC)cc2)c[nH]c1=O: -0.70
- C=CCn1cc(-c2ccc(O)cc2)c(O)c(C(=O)[C@@H]2C=C(C)[C@H]3CC[C@H](C)C[C@@H]3[C@H]2/C=C/C)c1=O: 0.00
- C/C=C/[C@@H]1[C@H]2C[C@@H](C)CC[C@@H]2C(C)=C[C@H]1C(=O)c1c(O)c(-c2ccc(OC(=O)CCCN)cc2)c[nH]c1=O: -1.35
- C/C=C/[C@@H]1[C@H]2C[C@@H](C)CC[C@@H]2C(C)=C[C@H]1C(=O)c1c(O)c(-c2ccc(O)cc2)cn(CC(=O)OC(C)(C)C)c1=O: 0.20
- C/C=C/[C@@H]1[C@H]2C[C@@H](C)CC[C@@H]2C(C)=C[C@H]1C(=O)c1c(O)c(-c2ccc(O)cc2)cn(C)c1=O: -0.60
- C/C=C/[C@@H]1[C@H]2C[C@@H](C)CC[C@@H]2[C@](C)(O)[C@H]2Oc3ncc(-c4ccc(O)cc4)c(O)c3C(=O)[C@@H]12: 0.00
- C/C=C/[C@@H]1[C@H]2C[C@@H](C)CC[C@@H]2C(C)=C[C@H]1C(=O)c1c(O)c(-c2ccc(OCC(=O)O)cc2)cn(CC(=O)O)c1=O: 0.00
- C/C=C/[C@@H]1[C@H]2C[C@@H](C)CC[C@@H]2C(C)=C[C@H]1C(=O)c1c(O)c(-c2ccc(OC(=O)CCCCN)cc2)c[nH]c1=O: -1.40

The reported measurements were obtained from ChEMBL document CHEMBL2380203.
